ratio to parent for assorted variants
B1: H2-Kb / F5 (parent)
chain 1: GDSVTQTEGLVTLTEGLPVMLNCTYQSTYSPFLFWYVQHLNEAPKLLLKSFTDNKRPEHQGFHATLHKSSSSFHLQKSSAQLSDSALYYCALSPSNMGYKLTFGTGTSLLVDP
chain 2: EAAVTQSPRNKVAVTGGKVTLSCNQTNNHNNMYWYRQDTGHGLRLIHYSYGAGSTEKGDIPDGYKASRPSQENFSLILELATPSQTSVYFCASGDASEQYFGPGTRLTVL
chain 3: not shown
chain 4: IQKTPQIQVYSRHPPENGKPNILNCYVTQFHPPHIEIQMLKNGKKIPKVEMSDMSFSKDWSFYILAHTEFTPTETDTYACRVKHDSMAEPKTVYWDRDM
chain 5: SIINFEKL

- Variants of: B1
- method.summary: % of reporter cells activated (NFAT-GFP), raw; note: test concentration or dose not given here
- study.conditions: with F5; scale: % of reporter cells activated
assay.readout: ratio to parent

>>> print(df.to_string())
    mutation_name    assay_readout  result
 0    chain 5 L8E  ratio to parent   0.285
 1    chain 5 L8K  ratio to parent   0.633
 2    chain 5 N4S  ratio to parent   0.303
 3    chain 5 S1V  ratio to parent   0.307
 4    chain 5 F5I  ratio to parent   0.607
 5    chain 5 E6D  ratio to parent   0.371
 6    chain 5 F5H  ratio to parent   0.659
 7    chain 5 K7D  ratio to parent   0.341
 8    chain 5 N4V  ratio to parent   0.322
 9    chain 5 F5R  ratio to parent   0.318
10    chain 5 N4T  ratio to parent   0.337
11    chain 5 K7Y  ratio to parent   0.423
12    chain 5 I3K  ratio to parent   0.345
13    chain 5 S1Q  ratio to parent   0.554
14    chain 5 F5C  ratio to parent    1.48
15    chain 5 L8P  ratio to parent   0.352
16    chain 5 K7C  ratio to parent   0.588
